tested on: B16F0 melanoma tumour; assay: Biodistribution in B16 melanoma bearing mice; format: in vivo, C57BL/6J mice; conditions: B16 melanoma bearing mice, 6 h
Reported uptake HEART values for the following molecules.

{"Molecule": "CCN(CC)CCNC(=O)c1cccnc1F [[^18F]MEL6]", "uptake HEART [% ID/g]": 0.2}
{"Molecule": "CCN(CC)CCNC(=O)c1ccnc(F)c1 [[^18F]MEL8]", "uptake HEART [% ID/g]": 0.17}
{"Molecule": "CCN(CC)CCNC(=O)c1ccc(F)nc1 [[^18F]MEL2]", "uptake HEART [% ID/g]": 0.054}
{"Molecule": "CCCCN(C)CCCCNC(=O)c1ccc(F)nc1 [[^18F]MEL4]", "uptake HEART [% ID/g]": 0.52}

###

test system: B16F0 melanoma tumour; experiment: Biodistribution in B16 melanoma bearing mice; assay type: in vivo, C57BL/6J mice; details: B16 melanoma bearing mice, 6 h
Reported uptake MUSCLE values for the following molecules.
Assay Endpoint: uptake MUSCLE (% ID/g)

{"Molecule": "CCN(CC)CCNC(=O)c1ccnc(F)c1 [[^18F]MEL8]", "Numeric Readout": 0.17}
{"Molecule": "CCN(CC)CCNC(=O)c1cccnc1F [[^18F]MEL6]", "Numeric Readout": 0.2}
{"Molecule": "CCCCN(C)CCCCNC(=O)c1ccc(F)nc1 [[^18F]MEL4]", "Numeric Readout": 0.36}
{"Molecule": "CCN(CC)CCNC(=O)c1ccc(F)nc1 [[^18F]MEL2]", "Numeric Readout": 0.032}

###

test system: B16F0 melanoma tumour; assay: Biodistribution in B16 melanoma bearing mice; format: in vivo, C57BL/6J mice; settings: B16 melanoma bearing mice, 15 min
Assay Endpoint: uptake BLOOD (% ID/g)

{"Molecule": "CCN(CC)CCNC(=O)c1ccc(F)nc1 [[^18F]MEL2]", "Numeric Readout": 2.048}
{"Molecule": "CCN(CC)CCNC(=O)c1cccnc1F [[^18F]MEL6]", "Numeric Readout": 2.8}
{"Molecule": "CCN(CC)CCNC(=O)c1ccnc(F)c1 [[^18F]MEL8]", "Numeric Readout": 2.55}
{"Molecule": "CCCCN(C)CCCCNC(=O)c1ccc(F)nc1 [[^18F]MEL4]", "Numeric Readout": 0.68}

###

tested on: B16F0 melanoma tumour; test: Biodistribution in B16 melanoma bearing mice; format: in vivo, C57BL/6J mice; conditions: B16 melanoma bearing mice, 15 min
Reported uptake STOMACH values for the following compounds.

{"Compound": "CCN(CC)CCNC(=O)c1ccnc(F)c1 [[^18F]MEL8]", "Test Target": "B16F0 melanoma tumour", "uptake STOMACH (% ID/g)": 13.20}
{"Compound": "CCCCN(C)CCCCNC(=O)c1ccc(F)nc1 [[^18F]MEL4]", "Test Target": "B16F0 melanoma tumour", "uptake STOMACH (% ID/g)": 8.52}
{"Compound": "CCN(CC)CCNC(=O)c1cccnc1F [[^18F]MEL6]", "Test Target": "B16F0 melanoma tumour", "uptake STOMACH (% ID/g)": 14.7}
{"Compound": "CCN(CC)CCNC(=O)c1ccc(F)nc1 [[^18F]MEL2]", "Test Target": "B16F0 melanoma tumour", "uptake STOMACH (% ID/g)": 9.344}

###

Tested on: B16F0 melanoma tumour
Assay: Biodistribution in B16 melanoma bearing mice
Assay type: in vivo, C57BL/6J mice
Conditions: B16 melanoma bearing mice, 6 h
Description: Animal experiments were performed in compliance with the NHMRC Australian Code of Practice for the care and use of animals for scientific purposes. […] Eleven days (B16F0 melanoma) and 25 days (A375 human melanoma) after tumour transplantation, the [^18F]nicotinamides (0.5-1.5 MBq, 100 μl) and [^123I]nicotinamide (0.37-0.74 MBq, 100 μl) derivatives were injected intravenously via the tail vein into mice (15-18 g). […] Selected organs were weighed and their radioactivity measured with a γ-counter. […]
Reported uptake EYES values for the following molecules.

{"Molecule": "CCN(CC)CCNC(=O)c1cccnc1F [[^18F]MEL6]", "Unit Abbrev": "% ID/g", "uptake EYES": 27.4}
{"Molecule": "CCN(CC)CCNC(=O)c1ccc(F)nc1 [[^18F]MEL2]", "Unit Abbrev": "% ID/g", "uptake EYES": 15.591}
{"Molecule": "CCCCN(C)CCCCNC(=O)c1ccc(F)nc1 [[^18F]MEL4]", "Unit Abbrev": "% ID/g", "uptake EYES": 15.75}
{"Molecule": "CCN(CC)CCNC(=O)c1ccnc(F)c1 [[^18F]MEL8]", "Unit Abbrev": "% ID/g", "uptake EYES": 16.49}

###

Reported uptake SPLEEN values for the following molecules.
system: B16F0 melanoma tumour; test: Biodistribution in B16 melanoma bearing mice; assay type: in vivo, C57BL/6J mice; conditions: B16 melanoma bearing mice, 6 h

{"Molecule": "CCN(CC)CCNC(=O)c1ccc(F)nc1 [[^18F]MEL2]", "Unit Abbrev": "% ID/g", "uptake SPLEEN": 0.470}
{"Molecule": "CCN(CC)CCNC(=O)c1cccnc1F [[^18F]MEL6]", "Unit Abbrev": "% ID/g", "uptake SPLEEN": 0.5}
{"Molecule": "CCCCN(C)CCCCNC(=O)c1ccc(F)nc1 [[^18F]MEL4]", "Unit Abbrev": "% ID/g", "uptake SPLEEN": 4.11}
{"Molecule": "CCN(CC)CCNC(=O)c1ccnc(F)c1 [[^18F]MEL8]", "Unit Abbrev": "% ID/g", "uptake SPLEEN": 1.31}

###

tested on: B16F0 melanoma tumour; assay: Biodistribution in B16 melanoma bearing mice; format: in vivo, C57BL/6J mice; details: B16 melanoma bearing mice, 1 h

{"Molecule": "CCN(CC)CCNC(=O)c1ccc(F)nc1 [[^18F]MEL2]", "uptake STOMACH": "3.370 % ID/g"}
{"Molecule": "CCN(CC)CCNC(=O)c1cccnc1F [[^18F]MEL6]", "uptake STOMACH": "6.8 % ID/g"}
{"Molecule": "CCN(CC)CCNC(=O)c1ccnc(F)c1 [[^18F]MEL8]", "uptake STOMACH": "5.25 % ID/g"}
{"Molecule": "CCCCN(C)CCCCNC(=O)c1ccc(F)nc1 [[^18F]MEL4]", "uptake STOMACH": "3.31 % ID/g"}

###

test system: B16F0 melanoma tumour; experiment: Biodistribution in B16 melanoma bearing mice; assay type: in vivo, C57BL/6J mice; conditions: B16 melanoma bearing mice, 3 h
Assay Endpoint: uptake BRAIN

{"Molecule": "CCCCN(C)CCCCNC(=O)c1ccc(F)nc1 [[^18F]MEL4]", "Test Target": "B16F0 melanoma tumour", "Result": "0.57 % ID/g"}
{"Molecule": "CCN(CC)CCNC(=O)c1ccc(F)nc1 [[^18F]MEL2]", "Test Target": "B16F0 melanoma tumour", "Result": "0.150 % ID/g"}
{"Molecule": "CCN(CC)CCNC(=O)c1ccnc(F)c1 [[^18F]MEL8]", "Test Target": "B16F0 melanoma tumour", "Result": "0.19 % ID/g"}
{"Molecule": "CCN(CC)CCNC(=O)c1cccnc1F [[^18F]MEL6]", "Test Target": "B16F0 melanoma tumour", "Result": "0.4 % ID/g"}

###

Reported uptake LUNGS values for the following compounds.
test system: B16F0 melanoma tumour; test: Biodistribution in B16 melanoma bearing mice; format: in vivo, C57BL/6J mice; settings: B16 melanoma bearing mice, 15 min
Assay Endpoint: uptake LUNGS (% ID/g)

{"Compound": "CCCCN(C)CCCCNC(=O)c1ccc(F)nc1 [[^18F]MEL4]", "Numeric Readout": 12.06}
{"Compound": "CCN(CC)CCNC(=O)c1ccnc(F)c1 [[^18F]MEL8]", "Numeric Readout": 5.67}
{"Compound": "CCN(CC)CCNC(=O)c1ccc(F)nc1 [[^18F]MEL2]", "Numeric Readout": 5.616}
{"Compound": "CCN(CC)CCNC(=O)c1cccnc1F [[^18F]MEL6]", "Numeric Readout": 5.0}

###

Reported uptake STOMACH values for the following molecules.
system: B16F0 melanoma tumour; experiment: Biodistribution in B16 melanoma bearing mice; format: in vivo, C57BL/6J mice; conditions: B16 melanoma bearing mice, 3 h

{"Molecule": "CCN(CC)CCNC(=O)c1cccnc1F [[^18F]MEL6]", "uptake STOMACH": "1.9 % ID/g"}
{"Molecule": "CCN(CC)CCNC(=O)c1ccnc(F)c1 [[^18F]MEL8]", "uptake STOMACH": "0.82 % ID/g"}
{"Molecule": "CCCCN(C)CCCCNC(=O)c1ccc(F)nc1 [[^18F]MEL4]", "uptake STOMACH": "2.36 % ID/g"}
{"Molecule": "CCN(CC)CCNC(=O)c1ccc(F)nc1 [[^18F]MEL2]", "uptake STOMACH": "0.828 % ID/g"}
